Each record here notes measured IC50.
- TARGET OR TEST SYSTEM: KRAS G12V (Homo sapiens, UniProt P01116, G12V)
- Sequence (P01116 with tags, fused parts or gaps isoform P01116-2 G12V): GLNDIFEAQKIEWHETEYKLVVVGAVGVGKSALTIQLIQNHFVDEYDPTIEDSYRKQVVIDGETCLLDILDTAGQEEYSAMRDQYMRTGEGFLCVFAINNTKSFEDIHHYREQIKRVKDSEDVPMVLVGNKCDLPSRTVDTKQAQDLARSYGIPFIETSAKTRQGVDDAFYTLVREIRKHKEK
- TEST METHOD NOTES: SOS-catalyzed nucleotide exchange assay, KRAS G12V (Procedure A)
- Format: biochemical
- TEST CONTEXT: GNE

Some compounds with known IC50 results, for comparison:
COMPOUND	IC50
CN(C)C[C@@]1(COc2nc(N3C[C@H]4CC[C@@H](C3)N4)c3c(n2)sc2c(-c4c(C5CC5)c(Cl)cc5[nH]ncc45)nccc23)CC1(F)F [Ex-21]	5 µM
C#Cc1c(F)ccc2cc3[nH]ncc3c(-c3nccc4c3sc3nc(OCC5(C(F)(F)F)CCOCC5)nc(N5C[C@H]6CC[C@@H](C5)N6)c34)c12 [Ex-110]	> 11.1 µM
C#Cc1c(F)ccc2cc3[nH]ncc3c(-c3nccc4c3sc3nc(OC[C@]5(CN6CC7(CCOC7)C6)CC5(F)F)nc(N5C[C@H]6CC[C@@H](C5)N6)c34)c12 [Ex-104]	0.631 µM
C#Cc1c(F)ccc2cc3[nH]ncc3c(-c3nccc4c3sc3nc(OC[C@]5(CN6CCC7(CCC7)CC6)CC5(F)F)nc(N5C[C@H]6CC[C@@H](C5)N6)c34)c12 [Ex-98]	> 11.1 µM
Cc1cc2[nH]ncc2c(-c2nccc3c2sc2nc(OC[C@@]45CCCN4C[C@H](F)C5)nc(N4[C@@H]5CC[C@H]4CN(CC(C)O)C5)c23)c1C(F)(F)F (some centres unmarked) [Ex-112]	> 11.1 µM
Cc1cc2[nH]ncc2c(-c2nccc3c2sc2nc(OCC45COC(CF)(C4)C5)nc(N4C[C@H]5CC[C@@H](C4)N5)c23)c1C(F)(F)F [Ex-28]	> 11.1 µM
C#Cc1csc2cc3[nH]ncc3c(-c3nccc4c3sc3nc(OC[C@]5(CN6CC7(C6)CC(F)(F)C7)CC5(F)F)nc(N5C[C@H]6CC[C@@H](C5)N6)c34)c12 [Ex-83]	0.704 µM
Cc1cc2[nH]ncc2c(-c2nccc3c2sc2nc(OC[C@@]45CCCN4C[C@H](F)C5)nc(NCC4(N(C)C)CCC4)c23)c1C(F)(F)F [Ex-74]	> 11.1 µM

Q. Which value of IC50 has been reported for Cc1cc2[nH]nc(C#N)c2c(-c2nccc3c4c(N5C[C@H]6CC[C@@H](C5)N6)nc(OC[C@@]56CCCN5C[C@H](F)C6)nc4n(C)c23)c1C(F)(F)F (single isomer, unassigned) [Ex-2] in the records?
A. > 11.1 µM

Q. Which value of IC50 has been reported for C#Cc1c(F)ccc2cc3[nH]ncc3c(-c3nccc4c3sc3nc(OC[C@]5(CN6CCN(CC(F)(F)F)CC6)CC5(F)F)nc(N5C[C@H]6CC[C@@H](C5)N6)c34)c12 [Ex-101] in the records?
A. > 11.1 µM

Q. Which value of IC50 has been reported for Cc1cc2[nH]ncc2c(-c2nccc3c2sc2nc(OCCN4CCOC4=O)nc(N4C[C@H]5CC[C@@H](C4)N5)c23)c1C(F)(F)F [Ex-40] in the records?
A. > 11.1 µM
